Tested on: Caco-2 colon cancer
Assay: In vitro anti-proliferative activity, SRB assay, Caco-2
Assay type: cell-based, human
Details: Homo sapiens, Caco-2; 72 h incubation, SRB; mean ± SE of three experiments; read-out: IC50 Caco-2
pIC50: −log10 of the molar value.
Parameter: pIC50

Compound: CC(=O)c1ccc(NS(=O)(=O)c2ccc3oc(=O)ccc3c2)cc1
System name: Caco-2 colon cancer
pIC50: 4.09

Compound: CC(=NNS(=O)(=O)c1ccc(C)cc1)c1ccc(NS(=O)(=O)c2ccc3oc(=O)ccc3c2)cc1
System name: Caco-2 colon cancer
pIC50: 4.80

Compound: O=c1ccc2cc(S(=O)(=O)Nc3ccc(S(=O)(=O)Nc4ccccn4)cc3)ccc2o1
System name: Caco-2 colon cancer
pIC50: 4.17

Compound: CC(=NNc1nc(-c2ccccc2)cs1)c1ccc(NS(=O)(=O)c2ccc3oc(=O)ccc3c2)cc1 [Compound 13a]
System name: Caco-2 colon cancer
pIC50: 4.08

Compound: CC(=NNC1=NC(=O)C(CC(=O)O)S1)c1ccc(NS(=O)(=O)c2ccc3oc(=O)ccc3c2)cc1 (stereo not drawn) [Compound 15c]
System name: Caco-2 colon cancer
pIC50: 4.34

A. CC(=NNc1nc(C)cs1)c1ccc(NS(=O)(=O)c2ccc3oc(=O)ccc3c2)cc1 [Compound 11a]
B. COc1cccc2c1C(=O)c1c(O)c3c(c(O)c1C2=O)C[C@@](O)(C(=O)CO)C[C@@H]3O[C@H]1C[C@H](N)[C@H](O)[C@H](C)O1 [Doxorubicin, reference compound]
C. NS(=O)(=O)c1ccc(NS(=O)(=O)c2ccc3oc(=O)ccc3c2)cc1
Q: I would appreciate it if you could sort these 3 compounds by pIC50, starting from the smallest number. Kindly provide the labels arranged according to the requested ordering.
A: C, A, B
